- target entity: Protein translocase subunit SecA (Escherichia coli (strain K12)) (UniProt P10408)
- Sequence (P10408 whole entry): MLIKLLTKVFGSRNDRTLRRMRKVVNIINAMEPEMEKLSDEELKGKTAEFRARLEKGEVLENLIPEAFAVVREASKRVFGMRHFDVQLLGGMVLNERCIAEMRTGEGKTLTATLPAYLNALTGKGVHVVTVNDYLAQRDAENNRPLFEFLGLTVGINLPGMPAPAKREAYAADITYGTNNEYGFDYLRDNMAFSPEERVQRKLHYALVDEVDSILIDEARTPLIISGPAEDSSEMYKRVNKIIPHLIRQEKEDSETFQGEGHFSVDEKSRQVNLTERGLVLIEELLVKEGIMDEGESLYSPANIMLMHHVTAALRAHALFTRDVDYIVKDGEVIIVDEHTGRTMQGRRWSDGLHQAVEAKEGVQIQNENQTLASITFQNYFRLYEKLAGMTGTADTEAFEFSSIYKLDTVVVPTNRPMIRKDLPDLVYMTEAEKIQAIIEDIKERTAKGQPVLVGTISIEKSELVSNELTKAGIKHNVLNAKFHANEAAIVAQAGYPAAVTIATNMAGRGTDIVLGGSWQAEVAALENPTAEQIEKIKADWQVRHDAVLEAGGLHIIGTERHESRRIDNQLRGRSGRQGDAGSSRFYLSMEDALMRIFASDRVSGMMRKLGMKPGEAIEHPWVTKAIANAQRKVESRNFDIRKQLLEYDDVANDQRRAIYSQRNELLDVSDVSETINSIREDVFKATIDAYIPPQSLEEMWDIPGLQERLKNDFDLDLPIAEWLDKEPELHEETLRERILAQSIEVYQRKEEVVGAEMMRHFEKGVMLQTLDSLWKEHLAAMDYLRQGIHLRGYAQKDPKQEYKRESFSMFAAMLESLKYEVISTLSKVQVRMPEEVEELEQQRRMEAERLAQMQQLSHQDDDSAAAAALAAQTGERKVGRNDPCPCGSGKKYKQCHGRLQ
- test: Assay to Identify E. coli SecA ATPase Inhibitors
- Assay type: functional
- Parameters: scale not given: direction of the effect not stated beside the values
- assay conditions: 30 µM
Entries with a potency or affinity are not part of this list.
measured metric: Percent Effect (%)
The reply should be a number in %, with the unit left off.

Cc1nc[nH]c1CN(C)CC1CCCN(CCc2ccc(Cl)cc2)C1 (stereo not given) :: 0.978
CC1CN(C(=O)CN(Cc2ccco2)C2CC2)CCO1 (stereo not given) :: -2.04
Cc1cc(C)c2nc(CN3CCOC(CCO)C3)cc(O)c2c1 (stereo not given) :: -2.9
Cc1nc(-c2ccccc2)n(CC(=O)N(C(C)C)C(C)C)n1 :: -0.812
CC(CNC(=O)N1CCSCC1)Cc1cccs1 (stereo not given) :: -4.11
Cc1ccc(=O)n(CC2(O)CCN(Cc3cc(C)c(O)c(C)c3)CC2)n1 :: -6.97
Cc1c[nH]nc1C1CCN(S(=O)(=O)N(C)C)CC1 :: -3.15
CC(=O)N1CCCCC1c1cc(CO)[nH]n1 (stereo not given) :: -1.55
Cc1nc(CN2CCCC(N(C)CCc3cccs3)C2)no1 (stereo not given) :: -2.72
CC(C(=O)NCc1ccc(N2CCNC(=O)C2)cc1)n1cncn1 (stereo not given) :: -6.76

Q: Would you kindly share the measured Percent Effect for Fc1cccc(-n2ccc(CN3CCCCC3Cn3cncn3)n2)c1 (stereo not given) ?
A: -3.79

----------
- target entity: Tyrosyl-tRNA synthetase, putative (Trypanosoma cruzi (strain CL Brener)) (UniProt Q4DSP6)
- Sequence (Q4DSP6 as listed by the source): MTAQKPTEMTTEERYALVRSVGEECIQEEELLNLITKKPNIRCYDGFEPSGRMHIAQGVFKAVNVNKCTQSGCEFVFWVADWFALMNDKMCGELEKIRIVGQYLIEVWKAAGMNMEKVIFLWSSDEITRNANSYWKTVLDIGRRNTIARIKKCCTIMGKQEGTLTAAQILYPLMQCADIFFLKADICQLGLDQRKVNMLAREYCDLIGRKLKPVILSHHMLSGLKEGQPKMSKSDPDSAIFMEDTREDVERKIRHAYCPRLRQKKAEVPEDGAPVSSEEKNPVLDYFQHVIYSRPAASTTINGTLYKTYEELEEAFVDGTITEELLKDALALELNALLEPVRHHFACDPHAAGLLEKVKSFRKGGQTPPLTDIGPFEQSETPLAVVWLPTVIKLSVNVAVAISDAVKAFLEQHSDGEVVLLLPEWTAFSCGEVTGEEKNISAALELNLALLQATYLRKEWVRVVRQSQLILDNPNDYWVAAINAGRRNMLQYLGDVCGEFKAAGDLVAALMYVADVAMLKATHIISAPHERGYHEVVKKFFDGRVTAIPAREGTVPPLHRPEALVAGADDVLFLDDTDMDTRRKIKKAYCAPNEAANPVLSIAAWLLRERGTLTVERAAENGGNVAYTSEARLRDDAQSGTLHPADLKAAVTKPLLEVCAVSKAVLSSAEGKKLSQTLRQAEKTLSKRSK
- test: Trypanosoma cruzi tyrosyl tRNA synthetase (TcYRS) SOP
- Format: functional
- Parameters: scale not given: direction of the effect not stated beside the values
- assay conditions: 30 µM
Each entry below carries its recorded Percent Effect.
The reply should be a number in %, with the unit left off.

See these solved cases before continuing.
O=C(Nc1ccnc(OC2CCOC2)c1)C1CCC1 (stereo unspecified) :: -5.13
CC(C)c1nc(C2CCCN(C(=O)Cc3cccnc3)C2)no1 (stereo unspecified) :: 6.17
COc1ccc(-n2ccc(C(=O)N3CCN(C)CC3C)n2)cc1 (stereo unspecified) :: 14.6
COc1ncccc1C(=O)N1CCCC(c2cc(C)[nH]n2)C1 (stereo unspecified) :: -6.17
Cc1ncc2c(n1)CN(CC(=O)Nc1nncs1)CC2 :: 11.1

Q: API: value(readout=Percent Effect, system=Tyrosyl-tRNA synthetase, putative (Trypanosoma cruzi (strain CL Brener)) (UniProt Q4DSP6)) for record CCC(O)CNC(=O)c1coc(COc2ccc3sc(C)nc3c2)n1 (stereo unspecified)
A: 0

----------
- target entity: Tyrosyl-tRNA synthetase, putative (Trypanosoma cruzi (strain CL Brener)) (UniProt Q4DSP6)
- test: Trypanosoma cruzi tyrosyl tRNA synthetase (TcYRS) _High Tyrosine SOP; note: in the data most compounds retested in dose-response had high values
- Type: functional
- Design: scale not given: direction of the effect not stated beside the values
- assay conditions: 30 µM
Each entry below carries its recorded Percent Effect.
The reply should be a number in %, with the unit left off.

See these solved cases before continuing.
COCCNC(=O)C[C@@H]1COC[C@H]2CN(C(=O)c3cnccn3)C[C@@H]12 :: 9.38
Cc1nccn1CCCC(=O)N1CCC(Nc2cccnn2)CC1 :: 2.46
CC(C)(C)c1nc(CN2CCC(c3nc4cc(Cl)ccc4o3)CC2)no1 :: 2.65
COc1cccc(COCC(=O)N2CCCC(c3cc(C)[nH]n3)C2)c1 (centres undefined) :: 11.3

Q: Would you kindly share the measured Percent Effect for CCOC(=O)C1CCCN(c2ccc(-c3nc(C)no3)cn2)C1 (centres undefined) ?
A: 3.83

Q: Same question, COc1cccc2c1OCC(CNC(=O)CSc1nc(N)n[nH]1)C2 (centres undefined) this time
A: 8.6

Q: Same question, CCCc1noc(CN(C)C(=O)C2COc3ccccc3C2)n1 (centres undefined) this time
A: 5.38

Q: Same question, CCN(Cc1ccc2c(c1)OCO2)Cc1nc(C)no1 this time
A: 4.43

Q: Same question, COc1cccc(COCC(O)CN2CC(n3cccn3)C2)c1 (centres undefined) this time
A: 7.35

Q: Same question, O=C(NCC(F)F)N1CCC(n2ccc(C(F)(F)F)n2)CC1 this time
A: 2.15

Q: Same question, CC(C)(C)c1n[nH]c(C2CN(C(=O)c3cc(Cl)c[nH]3)CCO2)n1 (centres undefined) this time
A: 2.13

Q: Same question, CCS(=O)(=O)N1CCOC2(CCCN(c3ccc(C)nn3)C2)C1 (centres undefined) this time
A: -1.04

Q: Same question, CCN(CC)C(=O)c1ccn(COc2cc(C)cc(C)c2)n1 this time
A: 4.23

Q: Same question, CC(C)c1nc(C2CCCN(C(=O)Cc3cccnc3)C2)no1 (centres undefined) this time
A: 5.42

Q: Same question, CCS(=O)(=O)N1CCC2(CCCN(Cc3cc(OC)ccc3F)C2)C1 (centres undefined) this time
A: 6.32

Q: Same question, CCc1noc(CNc2ccc(F)cc2OCC2CC2)n1 this time
A: 1.59

----------
- target entity: Protein translocase subunit SecA (Escherichia coli (strain K12))
- test: Assay to Identify E. coli SecA ATPase Inhibitors
- Format: functional
- Set-up: scale not given: direction of the effect not stated beside the values
- assay conditions: 30 µM
Potency and affinity values are given separately.
measured metric: Percent Effect (%)
The reply should be a number in %, with the unit left off.

See these solved cases before continuing.
CC(C)(C)NC(=O)CN1CCN(C(=O)Nc2ccc(F)cc2F)CC1 :: -2.23
CCN1CCN(C(=O)c2cnn(-c3ccccc3Cl)c2)CC1 :: -4.44
COC(=O)CCC(=O)N1CCc2[nH]nc(-c3ccc4c(c3)OCO4)c2C1 :: -2.09
CC1CCCN(CCNC(=O)c2ccn(-c3ccccc3)n2)C1 (stereo unspecified) :: -0.427
O=C(c1cc(Cl)c2c(c1)OCO2)N1CCN(c2nccs2)CC1 :: -3.24

Q: Would you kindly share the measured Percent Effect for Cc1nc2ccnn2c(C)c1CCC(=O)N1CCC(C(N)=O)CC1 ?
A: -6.89

----------
- Tested on: Trypanosoma cruzi
- test: Trypanosoma cruzi phosphomannomutase and mannose-1-phosphate guanylyltransferase assay
- Type: functional
- Parameters: scale not given: direction of the effect not stated beside the values
- assay conditions: 10 µM
measured metric: Percent Effect (%)
The reply should be a number in %, with the unit left off.

c1cc(CNCc2ccnc(N3CCOCC3)c2)c2c(c1)OCCO2 :: 8.31
CCN1CC(C(=O)N(C)Cc2ccon2)CC1=O (configuration not stated) :: -2.44
COc1ccc(CNC(=O)NCc2c(C)cc(C)[nH]c2=O)cc1 :: 0.84
O=C(CCC1CCCO1)NCc1ccnc(-n2cccn2)c1 (configuration not stated) :: -7.38
CN(CCc1ccccc1)Cc1cc(C(=O)N2CCN(C)C(=O)C2)no1 :: 1.19

Q: Would you kindly share the measured Percent Effect for CN(C)CCN1CCO[C@@H]2CN(C(=O)c3cccs3)CC[C@@H]2C1 ?
A: -1.27

Q: Same question, Cc1cc(CN2CCN(C(=O)NCc3ccc(C)s3)CC2)no1 this time
A: -4.82

Q: Same question, CCc1cnc(CN2CCCC2c2noc(C3CC3)n2)o1 (configuration not stated) this time
A: 5.94

Q: Same question, CC(=O)NCC(=O)N1CC[C@H](OCC2CC2)[C@@H]1Cc1cccnc1 this time
A: -2.51

Q: Same question, COC(=O)c1cccc(C(=O)N2CCN(c3cccc(C)c3C)CC2)n1 this time
A: 2.66

Q: Same question, N#Cc1ccc(NCCNc2ccc(C(F)(F)F)cn2)nc1 this time
A: 3.01

Q: Same question, COC(=O)CCN1CCCC1c1ccccc1Cl (configuration not stated) this time
A: 2.04

----------
- target entity: Proteasome subunit beta (Trypanosoma cruzi)
- Sequence (whole entry): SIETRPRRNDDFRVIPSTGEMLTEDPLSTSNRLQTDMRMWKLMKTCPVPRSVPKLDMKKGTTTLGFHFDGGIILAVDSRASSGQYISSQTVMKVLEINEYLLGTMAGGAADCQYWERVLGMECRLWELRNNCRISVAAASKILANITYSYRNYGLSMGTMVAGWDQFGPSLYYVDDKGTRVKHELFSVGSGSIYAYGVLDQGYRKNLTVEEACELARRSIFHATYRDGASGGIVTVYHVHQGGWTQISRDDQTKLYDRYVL
- test: Trypanosoma cruzi proteasome chymotrypsin-like activity (TcProtChymo) assay. Note: in the data most compounds retested in dose-response had high values.
- Assay type: functional
- Design: scale not given: direction of the effect not stated beside the values
- assay conditions: 9.37 µM
Each entry below carries its recorded Percent Effect.
The reply should be a number in %, with the unit left off.

See these solved cases before continuing.
CS(=O)(=O)NCc1n[nH]c2c1CCN(C(=O)c1ccsc1)C2 :: 10.9
COc1cccc(OCc2cc(C(=O)NC[C@H]3CCCN3)n[nH]2)c1 :: 7.19
COCC1CN(Cc2ccncc2)Cc2nnn(CC3CC3)c21 (configuration not stated) :: 1.33

Q: Would you kindly share the measured Percent Effect for c1cnnc(N2CCCC(NCc3nc(C4CC4)no3)C2)c1 (configuration not stated) ?
A: 11.3

Q: Same question, CC(C)c1nccn1C1CCCN(C(=O)c2cccc3c2OCO3)C1 (configuration not stated) this time
A: 2.16

Q: Same question, CS(=O)(=O)N1CCCCCC1C1CCN(c2ncccn2)CC1 (configuration not stated) this time
A: 2.17

Q: Same question, O=C(Nc1ccccn1)N(CCO)Cc1ccsc1 this time
A: 11.2

Q: Same question, CN(C)CC1CN(c2cnc3ccccc3n2)CCO1 (configuration not stated) this time
A: 12.7
